Assay: folding enthalpy; higher = less favourable; fluorescence melt of hairpins on a sequencing array, two-state fit
Settings: sodium 0.088 M
value_kind: folding enthalpy (kcal/mol)

- residue_codes: "GCGGCGGCCCGC ((((....))))"
  observed_measurement: -13.8
- residue_codes: "GGCGCCGAAAGGCTTGCC ((((((....)))..)))"
  observed_measurement: -19.9
- residue_codes: "GTCCGACGAAAGTCAGAC (((.(((....))).)))"
  observed_measurement: -23.5
- residue_codes: "GATCATAACGATGATC ((((((....))))))"
  observed_measurement: -31.5
- residue_codes: "GCCTCGCGAAAGCTCGGC (((..((....))..)))"
  observed_measurement: -26.6
- residue_codes: "GCGTTGAGACGC ((((....))))"
  observed_measurement: -29.7
- residue_codes: "GAGACCGAAAGGTCACTC ((((((....)))..)))"
  observed_measurement: -13.8
- residue_codes: "GCCAAAGGAAACTTCGGC (((.(((....))).)))"
  observed_measurement: -24
- residue_codes: "GATCCGAAAACGGATC ((((((....))))))"
  observed_measurement: -37
- residue_codes: "GAGTCCGAAAGGATCTC ((((((....))).)))"
  observed_measurement: -31
- residue_codes: "GGTCACCGAAAGGTCACC (((.(((....))).)))"
  observed_measurement: -25.6
- residue_codes: "GGGACCGAAAGGTTTCCC ((((((....)))..)))"
  observed_measurement: -18.6
